assay: in vitro; settings: simulated gi fluid, pH 1.3
Where a SMILES comes first, the peptide text is derived from it. Bridges are numbered along the chain shown (N, C = ends). [ ]: non-standard residue; d: D form.
The entries below are paired with their reported half-life.

# molecule, half-life
records = [
    ("C[C@@H]1NC(=O)[C@@H]2CCCN2C(=O)[C@H](CC(N)=O)NC(=O)[C@@H]2CSSC[C@H](N)C(=O)N[C@H]3CSSC[C@H](NC1=O)C(=O)N[C@@H]([C@@H](C)O)C(=O)NCC(=O)N[C@H](C(=O)N[C@H](Cc1ccc(O)cc1)C(N)=O)CSSC[C@H](NC(=O)[C@H](Cc1ccc(O)cc1)NC(=O)[C@H](CCC(=O)O)NC3=O)C(=O)N2 [[D-Tyr^14]-Linaclotide] (H-CCEYCCNPACTGC[dY]-NH2; disulfide 1-6, 2-10, 5-13)", "> 8 h"),
    ("C[C@@H]1NC(=O)[C@@H]2CCCN2C(=O)[C@H](CC(N)=O)NC(=O)[C@@H]2CSSC[C@H](N)C(=O)N[C@H]3CSSC[C@H](NC1=O)C(=O)N[C@@H]([C@@H](C)O)C(=O)NCC(=O)N[C@H](C(=O)N[C@@H](Cc1ccc(O)cc1)C(=O)O)CSSC[C@H](NC(=O)[C@H](Cc1ccc(O)cc1)NC(=O)[C@H](CCC(=O)O)NC3=O)C(=O)N2 [Linaclotide, reference compound] (H-CCEYCCNPACTGCY-OH; disulfide 1-6, 2-10, 5-13 (inferred))", "> 8 h"),
]

Next item in the queue.
Input: Recorded half-life of C[C@@H]1NC(=O)[C@@H]2CCCN2C(=O)[C@H](CC(N)=O)NC(=O)[C@@H]2CSSC[C@H](N)C(=O)N[C@H]3CSSC[C@H](NC1=O)C(=O)N[C@@H]([C@@H](C)O)C(=O)NCC(=O)N[C@H](C(=O)N[C@@H](Cc1ccc(O)cc1)C(N)=O)CSSC[C@H](NC(=O)[C@H](Cc1ccc(O)cc1)NC(=O)[C@H](CCC(=O)O)NC3=O)C(=O)N2 [Linaclotide-NH2] (H-CCEYCCNPACTGCY-NH2; disulfide 1-6, 2-10, 5-13) , please.
Output: > 8 h

----------
molecular target: UniProt:P25092; assay: cell-based
Where a SMILES comes first, the peptide text is derived from it. Bridges are numbered along the chain shown (N, C = ends). [ ]: non-standard residue; d: D form.
recorded metric: pEC50
pEC50 here is simply -log10 of the concentration when that concentration is written in mol/L.

Solved cases below.
# compound, target system, recorded metric, reported measurement
data = [
    ("C[C@@H]1NC(=O)[C@@H]2CCCN2C(=O)[C@H](CC(N)=O)NC(=O)[C@@H]2CSSC[C@H](N)C(=O)N[C@H]3CSSC[C@H](NC1=O)C(=O)N[C@@H]([C@@H](C)O)C(=O)NCC(=O)N[C@H](C(=O)N[C@@H](Cc1ccc(O)cc1)C(=O)O)CSSC[C@H](NC(=O)[C@H](Cc1ccc(O)cc1)NC(=O)[C@H](CCC(=O)O)NC3=O)C(=O)N2 [Linaclotide, reference compound] (H-CCEYCCNPACTGCY-OH; disulfide 1-6, 2-10, 5-13 (inferred))", "UniProt:P25092", "pEC50", 8.43),
    ("C[C@@H]1NC(=O)[C@@H]2CCCN2C(=O)[C@H](CC(N)=O)NC(=O)[C@@H]2CSSC[C@H](N)C(=O)N[C@H]3CSSC[C@H](NC1=O)C(=O)N[C@@H]([C@@H](C)O)C(=O)NCC(=O)N[C@H](C(=O)N[C@H](Cc1ccc(O)cc1)C(N)=O)CSSC[C@H](NC(=O)[C@H](Cc1ccc(O)cc1)NC(=O)[C@H](CCC(=O)O)NC3=O)C(=O)N2 [[D-Tyr^14]-Linaclotide] (H-CCEYCCNPACTGC[dY]-NH2; disulfide 1-6, 2-10, 5-13)", "UniProt:P25092", "pEC50", 7.78),
]

Next item in the queue.
Input: Recorded pEC50 of C[C@@H]1NC(=O)[C@@H]2CCCN2C(=O)[C@H](CC(N)=O)NC(=O)[C@@H]2CSSC[C@H](N)C(=O)N[C@H]3CSSC[C@H](NC1=O)C(=O)N[C@@H]([C@@H](C)O)C(=O)NCC(=O)N[C@H](C(N)=O)CSSC[C@H](NC(=O)[C@H](Cc1ccc(O)cc1)NC(=O)[C@H](CCC(=O)O)NC3=O)C(=O)N2 [[desTyr^14]-Linaclotide-NH2] (H-CCEYCCNPACTGC-NH2; disulfide 1-6, 2-10, 5-13) , please.
Output: 7.47

----------
The entries below are paired with their reported pEC50.
biological target: GC-C receptor (Homo sapiens, UniProt P25092); test: cell-based
Sequence (P25092 24-1073 limits assumed): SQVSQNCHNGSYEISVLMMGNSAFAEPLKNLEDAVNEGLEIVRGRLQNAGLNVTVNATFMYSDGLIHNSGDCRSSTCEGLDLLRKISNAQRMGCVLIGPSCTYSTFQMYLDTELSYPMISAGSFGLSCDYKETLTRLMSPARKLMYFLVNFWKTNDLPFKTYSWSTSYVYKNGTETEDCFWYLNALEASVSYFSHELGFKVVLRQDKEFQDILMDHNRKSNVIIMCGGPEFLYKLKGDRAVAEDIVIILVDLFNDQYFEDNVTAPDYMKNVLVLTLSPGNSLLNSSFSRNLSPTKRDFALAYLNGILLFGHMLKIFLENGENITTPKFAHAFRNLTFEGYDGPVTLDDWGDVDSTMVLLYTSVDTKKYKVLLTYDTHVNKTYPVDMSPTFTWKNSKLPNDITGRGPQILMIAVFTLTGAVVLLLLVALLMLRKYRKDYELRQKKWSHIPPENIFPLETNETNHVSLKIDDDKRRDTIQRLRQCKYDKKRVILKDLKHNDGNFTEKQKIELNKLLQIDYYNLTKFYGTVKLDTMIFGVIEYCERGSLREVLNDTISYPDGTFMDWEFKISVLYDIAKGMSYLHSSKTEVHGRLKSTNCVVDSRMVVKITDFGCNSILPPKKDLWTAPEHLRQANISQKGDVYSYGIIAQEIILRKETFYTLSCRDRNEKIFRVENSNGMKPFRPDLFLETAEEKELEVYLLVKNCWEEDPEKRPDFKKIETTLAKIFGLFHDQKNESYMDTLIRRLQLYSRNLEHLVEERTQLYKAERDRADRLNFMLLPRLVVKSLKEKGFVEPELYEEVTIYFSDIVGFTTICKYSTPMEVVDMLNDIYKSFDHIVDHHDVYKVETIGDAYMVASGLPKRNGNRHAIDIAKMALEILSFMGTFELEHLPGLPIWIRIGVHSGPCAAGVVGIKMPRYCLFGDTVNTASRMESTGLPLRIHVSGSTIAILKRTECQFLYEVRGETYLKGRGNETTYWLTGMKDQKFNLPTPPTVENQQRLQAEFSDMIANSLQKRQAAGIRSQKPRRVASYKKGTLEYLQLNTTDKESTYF
Where a SMILES comes first, the peptide text is derived from it. Bridges are numbered along the chain shown (N, C = ends). [ ]: non-standard residue; d: D form.
pEC50 here is simply -log10 of the concentration when that concentration is written in mol/L.

Solved cases below.
# compound, target system, pEC50
data = [
    ("C[C@@H]1NC(=O)[C@@H]2CCCN2C(=O)[C@H](CC(N)=O)NC(=O)[C@@H]2CSSC[C@@H]3NC(=O)[C@H](Cc4ccc(O)cc4)NC(=O)[C@@H]4CSSC[C@H](NC(=O)[C@H](Cc5ccc(O)cc5)NC(=O)[C@H](CCC(=O)O)NC(=O)[C@H](CSSC[C@H](NC1=O)C(=O)N[C@@H]([C@@H](C)O)C(=O)NCC(=O)N4)NC3=O)C(=O)N2 [[cyclic]-Linaclotide] (cyclo(ACTGCYCCEYCCNP); disulfide 2-8, 5-11, 7-12)", "GC-C receptor (Homo sapiens, UniProt P25092)", 5.52),
    ("C[C@@H]1NC(=O)[C@@H]2CCCN2C(=O)[C@H](CC(N)=O)NC(=O)[C@@H]2CSSC[C@H](N)C(=O)N[C@H]3CSSC[C@H](NC1=O)C(=O)N[C@@H]([C@@H](C)O)C(=O)NCC(=O)N[C@H](C(=O)N[C@@H](Cc1ccc(O)cc1)C(N)=O)CSSC[C@H](NC(=O)[C@H](Cc1ccc(O)cc1)NC(=O)[C@H](CCC(=O)O)NC3=O)C(=O)N2 [Linaclotide-NH2] (H-CCEYCCNPACTGCY-NH2; disulfide 1-6, 2-10, 5-13)", "GC-C receptor (Homo sapiens, UniProt P25092)", 8.14),
]

Next item in the queue.
Input: Recorded pEC50 of CC(C)[C@@H](NC(=O)[C@@H]1CSSC[C@@H]2NC(=O)[C@H](Cc3ccc(O)cc3)NC(=O)[C@H](CCC(=O)O)NC(=O)[C@@H]3CSSC[C@H](NC(=O)[C@H](C)NC(=O)[C@@H]4CCCN4C(=O)[C@H](CC(N)=O)NC(=O)[C@H](CSSC[C@H](N)C(=O)N3)NC2=O)C(=O)N[C@@H]([C@@H](C)O)C(=O)NCC(=O)N1)C(N)=O [[D-Val^14]-Linaclotide] (H-CCEYCCNPACTGC[dV]-NH2; disulfide 1-6, 2-10, 5-13) , please.
Output: 6.98

----------
assay: in vitro; conditions: simulated gi fluid, pH 1.3
Where a SMILES comes first, the peptide text is derived from it. Bridges are numbered along the chain shown (N, C = ends). [ ]: non-standard residue; d: D form.
The entries below are paired with their reported half-life.

# compound, recorded metric, reported measurement
data = [
    ("CC(C)[C@@H](NC(=O)[C@@H]1CSSC[C@@H]2NC(=O)[C@H](Cc3ccc(O)cc3)NC(=O)[C@H](CCC(=O)O)NC(=O)[C@@H]3CSSC[C@H](NC(=O)[C@H](C)NC(=O)[C@@H]4CCCN4C(=O)[C@H](CC(N)=O)NC(=O)[C@H](CSSC[C@H](N)C(=O)N3)NC2=O)C(=O)N[C@@H]([C@@H](C)O)C(=O)NCC(=O)N1)C(N)=O [[D-Val^14]-Linaclotide] (H-CCEYCCNPACTGC[dV]-NH2; disulfide 1-6, 2-10, 5-13)", "half-life", "> 8 h"),
    ("C[C@@H]1NC(=O)[C@@H]2CCCN2C(=O)[C@H](CC(N)=O)NC(=O)[C@@H]2CSSC[C@H](N)C(=O)N[C@H]3CSSC[C@H](NC1=O)C(=O)N[C@@H]([C@@H](C)O)C(=O)NCC(=O)N[C@H](C(N)=O)CSSC[C@H](NC(=O)[C@H](Cc1ccc(O)cc1)NC(=O)[C@H](CCC(=O)O)NC3=O)C(=O)N2 [[desTyr^14]-Linaclotide-NH2] (H-CCEYCCNPACTGC-NH2; disulfide 1-6, 2-10, 5-13)", "half-life", "> 8 h"),
]

Next item in the queue.
Input: Recorded half-life of C[C@@H]1NC(=O)[C@@H]2CCCN2C(=O)[C@H](CC(N)=O)NC(=O)[C@@H]2CSSC[C@@H]3NC(=O)[C@H](Cc4ccc(O)cc4)NC(=O)[C@@H]4CSSC[C@H](NC(=O)[C@H](Cc5ccc(O)cc5)NC(=O)[C@H](CCC(=O)O)NC(=O)[C@H](CSSC[C@H](NC1=O)C(=O)N[C@@H]([C@@H](C)O)C(=O)NCC(=O)N4)NC3=O)C(=O)N2 [[cyclic]-Linaclotide] (cyclo(ACTGCYCCEYCCNP); disulfide 2-8, 5-11, 7-12) , please.
Output: > 8 h
